# tgt: SIRT1 (Homo sapiens, UniProt Q96EB6)
# procedure text: TAMRA based mass spectrometry assay of SIRT1 activity
# Assay type: biochemical
# experimental parameters: TAMRA assay; percent maximum fold activation; read-out: TAMRA % Fold Act
Examples of molecules with documented Emax follow.

Take a look at these entries with their results.
smi | Emax
Cc1csc(NC(=O)c2c(C)nn3ccc(-c4ccccc4C(F)(F)F)nc23)n1 | ≥ 350%
O=C(Nc1cccc(OCC(F)(F)F)n1)c1cnc2ccc(-c3ccccc3Cl)nn12 | < 350%
Cc1cc(C)nc(C(=O)Nc2cnn3ccc(-c4ccccc4C(F)(F)F)nc23)n1 | ≥ 350%
Cc1cc(-c2ccccc2C(F)(F)F)nn2c(C(=O)Nc3cnccn3)cnc12 | ≥ 350%
O=C(Nc1cnc2ccc(-c3ccccc3OC(F)(F)F)nn12)c1ncccn1 | ≥ 350%
Cc1cc(C)nc(NC(=O)c2c(C)nn3ccc(-c4ccccc4C(F)(F)F)nc23)c1 | ≥ 350%

Given item `CCOc1cc(NC(=O)c2cnn3ccc(-c4ccccc4C(F)(F)F)nc23)ccn1` , the value recorded as its Emax is ≥ 350%

Given item `CCn1nccc1NC(=O)c1c(C)nc2ccc(-c3ccccc3C(F)(F)F)nn12` , the value recorded as its Emax is < 350%

====

# tgt: SIRT1 (Homo sapiens, UniProt Q96EB6)
# procedure text: Trp mass spectrometry assay of SIRT1 activity
# Type: biochemical
# experimental parameters: concentration of test compound giving 150% activation of SIRT1; Trp peptide substrate
measured metric: Trp EC1.5 (μM)

Take a look at these entries with their results.
compound | Trp EC1.5 (μM)
COc1nccc(NC(=O)c2cnc3ccc(-c4ccccc4C(F)(F)F)nn23)n1 | B (EC1.5 1-25 μM)
O=C(Nc1cccc(CN2CCOCC2)n1)c1cnc2ccc(-c3ccc(F)cc3F)nn12 | C (EC1.5>25 μM)
Cc1cc(NC(=O)c2cnc3ccc(-c4ccccc4C(F)(F)F)nn23)ccn1 | B (EC1.5 1-25 μM)
Cn1cnc(C(=O)Nc2cnc3ccc(-c4ccccc4C(F)(F)F)nn23)c1 | C (EC1.5>25 μM)
CN(C)c1cccc(NC(=O)c2cnc3ccc(-c4ccccc4C(F)(F)F)nn23)n1 | B (EC1.5 1-25 μM)
O=C(Nc1ccnc(N2CCCC2)c1)c1cnc2ccc(-c3ccccc3C(F)(F)F)nn12 | A (EC1.5<1 μM)
O=C(Nc1cccc(CN2CCOCC2)n1)c1cnc2ccc(-c3ccccc3Cl)nn12 | C (EC1.5>25 μM)
Cc1ncccc1NC(=O)c1cnc2ccc(-c3ccccc3C(F)(F)F)nn12 | B (EC1.5 1-25 μM)

The observed Trp EC1.5 (μM) for `CS(=O)(=O)c1ccccc1-c1ccc2ncc(C(=O)Nc3cccnc3)n2n1` when tested with SIRT1 (Homo sapiens, UniProt Q96EB6) stands at C (EC1.5>25 μM)

The observed Trp EC1.5 (μM) for `O=C(Nc1cccc(CN2CCOCC2)n1)c1cnc2ccc(-c3ccc(F)c(F)c3)nn12` when tested with SIRT1 (Homo sapiens, UniProt Q96EB6) stands at C (EC1.5>25 μM)

The observed Trp EC1.5 (μM) for `O=C(Nc1cccnc1)c1cnc2ccc(-c3cccc(C(F)(F)F)c3)nn12` when tested with SIRT1 (Homo sapiens, UniProt Q96EB6) stands at A (EC1.5<1 μM)

====

# tgt: SIRT1 (Homo sapiens)
# procedure text: Trp mass spectrometry assay of SIRT1 activity
# Type: biochemical
# experimental parameters: Trp peptide substrate; percent maximum fold activation; read-out: Trp % Fold Act
measured metric: Emax

Take a look at these entries with their results.
smi | measured metric | val
Cc1cc(NC(=O)c2c(C)nc3c(C)cc(-c4ccccc4OC(F)(F)F)nn23)ccn1 | Emax | ≥ 350%
O=C(Nc1cccnc1)c1ncn2ccc(-c3ccccc3C(F)(F)F)nc12 | Emax | ≥ 350%
Cc1nc2c(C)cc(-c3ccccc3C(F)(F)F)nn2c1C(=O)Nc1ccncc1F | Emax | ≥ 350%
COc1cccc(NC(=O)c2c(C)nn3ccc(-c4ccccc4C(F)(F)F)nc23)n1 | Emax | ≥ 350%
O=C(Nc1cnc2ccc(-c3ccccc3C(F)(F)F)nn12)c1cccc(O)n1 | Emax | < 350%
Cc1csc(NC(=O)c2cnn3ccc(-c4ccccc4C(F)(F)F)nc23)n1 | Emax | ≥ 350%
Cc1nn2ccc(-c3ccccc3C(F)(F)F)nc2c1NC(=O)c1cccnc1 | Emax | < 350%

Given item `O=C(Nc1cccnn1)c1cnn2ccc(-c3ccccc3C(F)(F)F)nc12` , the value recorded as its Emax is < 350%

====

Examples of compounds with documented Emax follow.
# tgt: SIRT1 (Homo sapiens)
# Sequence (Q96EB6 1-747): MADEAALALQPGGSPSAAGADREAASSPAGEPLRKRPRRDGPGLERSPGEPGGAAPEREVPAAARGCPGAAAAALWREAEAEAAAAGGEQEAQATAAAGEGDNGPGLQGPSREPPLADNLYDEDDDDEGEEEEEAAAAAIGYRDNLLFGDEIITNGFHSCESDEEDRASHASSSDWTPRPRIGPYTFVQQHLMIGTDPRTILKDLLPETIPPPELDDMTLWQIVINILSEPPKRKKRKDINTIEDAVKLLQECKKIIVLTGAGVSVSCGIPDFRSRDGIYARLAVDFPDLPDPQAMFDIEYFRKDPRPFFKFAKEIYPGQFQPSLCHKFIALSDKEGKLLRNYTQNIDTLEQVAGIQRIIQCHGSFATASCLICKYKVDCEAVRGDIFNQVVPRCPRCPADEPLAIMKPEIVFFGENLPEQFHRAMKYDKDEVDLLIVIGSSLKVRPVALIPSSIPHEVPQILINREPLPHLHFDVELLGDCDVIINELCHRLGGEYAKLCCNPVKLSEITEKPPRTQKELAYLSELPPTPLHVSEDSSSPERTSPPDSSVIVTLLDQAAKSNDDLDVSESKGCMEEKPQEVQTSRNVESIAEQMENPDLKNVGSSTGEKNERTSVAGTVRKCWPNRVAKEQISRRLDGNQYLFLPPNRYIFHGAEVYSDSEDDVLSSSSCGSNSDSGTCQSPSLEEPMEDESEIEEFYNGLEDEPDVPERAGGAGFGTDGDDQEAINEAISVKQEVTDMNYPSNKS
# procedure text: TAMRA based mass spectrometry assay of SIRT1 activity
# Format: biochemical
# experimental parameters: percent maximum fold activation of SIRT1; TAMRA peptide substrate; read-out: TAMRA % Fold Act

smi | Emax
O=C(Nc1nccs1)c1cnc2ccc(-c3ccccc3OC(F)(F)F)nn12 | ≥ 350%
O=C(Nc1ccncc1)c1cnc2ccc(-c3c(F)cccc3F)nn12 | < 350%
COc1cccc(NC(=O)c2cnc3ccc(-c4ccccc4C(F)(F)F)nn23)n1 | ≥ 350%
O=C(Nc1cccc(N2CCOCC2)n1)c1nnc2ccc(-c3ccccc3C(F)(F)F)nn12 | ≥ 350%
O=C(Nc1nc(CN2CCOCC2)cs1)c1cnc2ccc(-c3ccccc3C(F)F)nn12 | < 350%

Given item `O=C(Nc1cnc2ccc(-c3ccccc3C(F)(F)F)nn12)c1cccc(N2CCC2)n1` , the value recorded as its Emax is ≥ 350%

Given item `Cc1noc(C)c1-c1ccc2ncc(C(=O)Nc3cccc(N4CCOCC4)n3)n2n1` , the value recorded as its Emax is < 350%

Given item `O=C(Nc1ccccn1)c1cnc2ccc(-c3ccc(F)c(F)c3F)nn12` , the value recorded as its Emax is < 350%

====

# tgt: SIRT1 (Homo sapiens)
# procedure text: TAMRA based mass spectrometry assay of SIRT1 activity
# Format: biochemical
# experimental parameters: TAMRA assay; percent maximum fold activation; read-out: TAMRA % Fold Act
Examples of compounds with documented Emax follow.

compound | measured metric | val
Cc1cnc(NC(=O)c2cnn3ccc(-c4ccccc4OC(F)(F)F)nc23)s1 | Emax | ≥ 350%
O=C(Nc1ccc(N2CCOCC2)nc1)c1cnc2ccc(-c3ccccc3C(F)(F)F)nn12 | Emax | ≥ 350%

Given item `Cc1cc(C)c(NC(=O)c2cnn3ccc(-c4ccccc4OC(F)(F)F)nc23)cn1` , the value recorded as its Emax is < 350%

Given item `Cc1cnc(C(=O)Nc2cnc3ccc(-c4ccccc4Cl)nn23)s1` , the value recorded as its Emax is ≥ 350%

Given item `Cc1ccc(NC(=O)c2cnn3ccc(-c4ccccc4OC(F)(F)F)nc23)nn1` , the value recorded as its Emax is ≥ 350%

Given item `O=C(Nc1cnn2ccc(-c3ccccc3C(F)(F)F)nc12)c1nc(C(F)(F)F)cs1` , the value recorded as its Emax is ≥ 350%

Given item `Cc1cnc(C(=O)Nc2cnn3ccc(-c4ccccc4OC(F)(F)F)nc23)s1` , the value recorded as its Emax is ≥ 350%

Given item `Cc1cnc(NC(=O)c2cnn3ccc(-c4ccccc4OC(F)(F)F)nc23)cn1` , the value recorded as its Emax is ≥ 350%

====

# tgt: SIRT1 (Homo sapiens)
# procedure text: TAMRA based mass spectrometry assay of SIRT1 activity
# Format: biochemical
# experimental parameters: concentration of test compound giving 150% activation of SIRT1; TAMRA peptide substrate
measured metric: TAMRA EC1.5 (μM)

Take a look at these entries with their results.
compound | tgt | TAMRA EC1.5 (μM)
O=C(Nc1cccc(N2CCOCC2)n1)c1cnc2ccc(-c3c(F)cccc3F)nn12 [Compound 168] | SIRT1 (Homo sapiens) | A (EC1.5<1 μM)
O=C(Nc1nc(CN2CCOCC2)cs1)c1cnc2ccc(-c3cccc(C(F)(F)F)c3)nn12 [Compound 6] | SIRT1 (Homo sapiens) | A (EC1.5<1 μM)
O=C(Nc1cccc(N2CCOCC2)n1)c1nnc2ccc(-c3ccccc3C(F)(F)F)nn12 [Compound 67] | SIRT1 (Homo sapiens) | A (EC1.5<1 μM)
Cc1cnc(NC(=O)c2cnc3ccc(-c4ccccc4C(F)(F)F)nn23)s1 [Compound 109] | SIRT1 (Homo sapiens) | A (EC1.5<1 μM)
Cn1cc(NC(=O)c2cnc3ccc(-c4ccccc4C(F)(F)F)nn23)cn1 [Compound 153] | SIRT1 (Homo sapiens) | B (EC1.5 1-25 μM)

Below: the item to evaluate.
Given item Cc1cnc(C(=O)Nc2cnc3ccc(-c4ccccc4C(F)(F)F)nn23)s1 [Compound 123] , the value recorded as its TAMRA EC1.5 (μM) is A (EC1.5<1 μM)
